system: SW1088 (Low Grade Glioma); assay: combination Emax (second highest fraction inhibited in the dose matrix, 72 h); higher = more inhibition; extreme values may be limits of the assay

{"molecule": "CC1(C)CCC(CN2CCN(c3ccc(C(=O)NS(=O)(=O)c4ccc(NCC5CCOCC5)c([N+](=O)[O-])c4)c(Oc4cnc5[nH]ccc5c4)c3)CC2)=C(c2ccc(Cl)cc2)C1 [Venetoclax] + C[C@@H](Nc1cc(F)cc(F)c1)c1cc(C(=O)N(C)C)cc2c(=O)cc(N3CCOCC3)oc12 [AZD8186] (first compound max 1 µM, 7x7, partner max 3 µM)", "combination Emax": 0.493}
{"molecule": "Cc1c2c(nn1C)CSCc1cc(n(C)n1)CSc1cc(c3ccccc3c1)OCCCc1c(C(=O)O)n(C)c3c-2c(Cl)ccc13 [AZD5991] + C[C@@H]1COCCN1C2=NC(=NC(=C2)C3(CC3)[S@](=N)(=O)C)C4=C5C=CNC5=NC=C4 [AZD6738] (first compound max 1 µM, 7x7, partner max 10 µM)", "combination Emax": 0.565}
{"molecule": "O=C(c1cc(Cc2n[nH]c(=O)c3ccccc23)ccc1F)N1CCN(C(=O)C2CC2)CC1 [Olaparib] + COc1nnc2ccc(N3CCC(c4ccc(OCCN5CCN(C)C(=O)[C@H]5C)cc4)CC3)nn12 [AZD5153] (first compound max 10 µM, 7x7, partner max 1 µM)", "combination Emax": 0.392}

The values you see were collected from the supplement of paper PMC11061612.
